# study.target: ER (Homo sapiens)
# Construct: endogenous in cells; probably T47D or MCF-7
# protocol.description: In-cell western blot analysis, relative ER percentage (compounds B1-B126)
# Assay type: cell-based
# experimental.parameters: ER degradation, 16 hours, read-out: ICW DC50

>  <compound>
C[C@@H]1Cc2c(ccc3[nH]ncc23)[C@@H](c2ccc(N3CCC(CN4CCC5(CC4)COc4c(ccc6c4CN([C@H]4CCC(=O)NC4=O)C6=O)O5)CC3)cn2)N1CC(F)(F)F [Compound B119]

>  <DC50>
0.01 to 0.1 µM

$$$$
>  <compound>
COc1cc(N2CCC3(CC2)CC(CN2CCN4c5ccc6c(c5OC[C@H]4C2)CN(C2CCC(=O)NC2=O)C6=O)CO3)ccc1[C@@H]1c2ccc3[nH]ncc3c2C[C@@H](C)N1CC(F)F (some centres unmarked) [Compound B80]

>  <DC50>
< 0.01 µM

$$$$
>  <compound>
C[C@@H]1Cc2c(ccc3[nH]ncc23)[C@@H](c2ccc(N3CCC4(CC3)CC(CN3CCN5c6ccc7c(c6OC[C@@H]5C3)CN(C3CCC(=O)NC3=O)C7=O)C4)cn2)N1CC(F)(F)F (some centres unmarked) [Compound B107]

>  <DC50>
0.01 to 0.1 µM

$$$$
>  <compound>
C[C@@H]1Cc2c(ccc3[nH]ncc23)[C@@H](c2ccc(N3CCC4(CCC(CN5CCC6(CC5)COc5c6ccc6c5CN([C@H]5CCC(=O)NC5=O)C6=O)CO4)CC3)nn2)N1CC(F)(F)F (some centres unmarked) [Compound B128]

>  <DC50>
< 0.01 µM

$$$$
>  <compound>
C[C@H]1Cc2c(ccc3[nH]ncc23)[C@H](c2cnc(N3CCC4(CC3)CC(CN3CCN(c5ccc(NC6CCC(=O)NC6=O)cc5F)CC3)C4)nc2)N1CC(F)(F)F (some centres unmarked) [Compound B122]

>  <DC50>
> 0.1 µM

$$$$

Taken from patent US20260256925A1.
